// reported MCr binding affinity relative to αMSH per item
Target of assay: T1, MC4r (human recombinant, CHO cells) (human, UniProt P32245 1-332)
T1 construct: whole, on cells
T1 sequence (P32245 whole entry): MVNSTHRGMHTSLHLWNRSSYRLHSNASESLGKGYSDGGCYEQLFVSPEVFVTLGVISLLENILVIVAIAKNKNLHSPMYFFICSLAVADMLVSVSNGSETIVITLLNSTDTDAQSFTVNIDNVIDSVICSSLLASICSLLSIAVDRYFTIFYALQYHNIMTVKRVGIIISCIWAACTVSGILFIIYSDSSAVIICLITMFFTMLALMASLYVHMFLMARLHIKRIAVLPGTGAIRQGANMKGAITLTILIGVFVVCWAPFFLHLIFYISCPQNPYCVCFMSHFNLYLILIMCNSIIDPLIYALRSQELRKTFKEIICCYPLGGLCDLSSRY
Experiment description: radioligand binding, CHO cells expressing human MC4r; affinity as a multiple of αMSH's

Binder | MCr binding affinity relative to αMSH [fold]
KYVXGHFRWDRFG (alpha-amino group of Lys1 acetylated; Ac-Lys-Lys attached to the epsilon-amino group of Lys1; Nle at position 4 (written X); D-Trp at position 9; C-terminal amide, BAP-modified γ-MSH analogue; X = norleucine) [Analogue 5 (Example 3): Ac-(Ac-Lys-Lys)Lys-Tyr-Val-Nle-Gly-His-Phe-Arg-DTrp-Asp-Arg-Phe-Gly-NH2] | 2.8
KYVXGHFRWDRFG (alpha-amino group of Lys1 acetylated; Ac-Lys-Lys attached to the epsilon-amino group of Lys1; Nle at position 4 (written X); D-Phe at position 7; C-terminal amide, BAP-modified γ-MSH analogue; X = norleucine) [Analogue 7 (Example 3): Ac-(Ac-Lys-Lys)Lys-Tyr-Val-Nle-Gly-His-DPhe-Arg-Trp-Asp-Arg-Phe-Gly-NH2] | 37
KYVXGHFRWDRFG (alpha-amino group of Lys1 acetylated; Ac-Lys-Lys attached to the epsilon-amino group of Lys1; Nle at position 4 (written X); D-Phe at position 7; D-Trp at position 9; C-terminal amide, BAP-modified γ-MSH analogue; X = norleucine) [Analogue 8 (Example 3): Ac-(Ac-Lys-Lys)Lys-Tyr-Val-Nle-Gly-His-DPhe-Arg-DTrp-Asp-Arg-Phe-Gly-NH2] | 10.7
KYVXGHFRWDRFG (alpha-amino group of Lys1 acetylated; Ac-Lys-Lys attached to the epsilon-amino group of Lys1; Nle at position 4 (written X); C-terminal amide, BAP-modified γ-MSH analogue; X = norleucine) [Analogue 6 (Example 3): Ac-(Ac-Lys-Lys)Lys-Tyr-Val-Nle-Gly-His-Phe-Arg-Trp-Asp-Arg-Phe-Gly-NH2] | 2.9
